Where do the numbers come from? From patent US20140213538A1.

EC50 values for the compounds below.
assay.target: LPA1 (Homo sapiens)
assay.summary: LPA1 Migration Assay (Oris)
test.context: read-out: Cell Migration EC50
From the text: LPA1 Migration Assay Migration of primary fibroblasts (including lung, dermal), HFL-1, 3T3 and CHO cells expressing LPA1R were monitored using the Oris™ assay (Platypus Technologies, Madison, Wis.). These cells were dye (Cell Tracker Green™) loaded and serum starved for 12-24 hrs. In response to chemoattractants such as LPA and serum, the cells migrated inward in to the exclusion (detection) zone. After fixing, fluorescent cells in the detection zone were counted using a high content reader. […]

Check out these entries, answers already filled in.
compound	EC50
C[C@@H](OC(=O)Nc1c(-c2cc3sc(C#CC4(C(=O)O)CC4)cc3s2)nnn1C)c1ccccc1	> 0.5 µM
Cc1nsc(-c2cc3sc(-c4ccc(CC(=O)O)cc4F)cc3s2)c1NC(=O)O[C@H](C)c1ccccc1	> 0.5 µM
Cc1noc(-c2ccc(NC(=O)c3coc(C4(C(=O)O)CC4)c3)cc2)c1NC(=O)O[C@H](C)c1ccccc1	< 0.05 µM
C[C@@H](OC(=O)Nc1c(-c2cc3sc(-c4ccc(C5(C(=O)O)CC5)cc4)cc3s2)nnn1C)c1ccccc1	0.05 to 0.5 µM

IN: // returns reported EC50 for input `Cc1noc(-c2ccc(-c3ccc(NC(=O)OC(C)(C)C)cc3)cc2)c1NC(=O)O[C@H](C)c1ccccc1`
OUT: > 0.5 µM

IN: // returns reported EC50 for input C[C@@H](OC(=O)Nc1c(C2CCC(c3ccc(C4(C(=O)O)CC4)cc3)CC2)cnn1C)c1ccccc1 (stereo partly shown)
OUT: > 0.5 µM

IN: // returns reported EC50 for input `Cc1c(C#Cc2cnn(C)c2NC(=O)O[C@H](C)c2ccccc2)sc2c(C)c(C3(C(=O)O)CC3)sc12`
OUT: 0.05 to 0.5 µM

###

assay.target: LPA1 (Homo sapiens, UniProt Q92633)
assay.summary: Ca Flux LPA1 assay
IC50 values for the molecules below.

molecule	quantity.name	val
C[C@@H](OC(=O)Nc1c(-c2ccc(-c3cc(F)c(Oc4cccnc4C(=O)O)c(F)c3)cc2)cnn1C)c1ccccc1	IC50	< 50 nM
Cc1noc(-c2ccc(-c3ccc(Oc4c(C(=O)O)n[nH]c4C)cc3)cc2)c1NC(=O)O[C@H](C)c1ccccc1	IC50	50 to 500 nM
Cc1noc(-c2ccc(-c3ccc(Oc4c(F)cccc4C(=O)O)cc3)cc2)c1NC(=O)O[C@H](C)c1ccccc1	IC50	50 to 500 nM
Cc1noc(-c2ccc(-c3ccc(OC4(C(=O)O)CCC4)cc3)cc2)c1NC(=O)O[C@H](C)c1ccccc1	IC50	< 50 nM
Cc1noc(-c2ccc(-c3cc(F)c(OC4(C(=O)O)CC4)c(F)c3)cc2)c1NC(=O)O[C@H](C)c1ccccc1	IC50	< 50 nM

Here is the next item to consider.
IN: // returns reported IC50 for input `C[C@@H](OC(=O)Nc1c(C#Cc2ccc(Oc3ccccc3C(=O)O)cc2)cnn1C)c1ccccc1`
OUT: < 50 nM

###

assay.target: LPA/S1P GPCR of interest (Homo sapiens)
Sequence (Q92633 whole entry): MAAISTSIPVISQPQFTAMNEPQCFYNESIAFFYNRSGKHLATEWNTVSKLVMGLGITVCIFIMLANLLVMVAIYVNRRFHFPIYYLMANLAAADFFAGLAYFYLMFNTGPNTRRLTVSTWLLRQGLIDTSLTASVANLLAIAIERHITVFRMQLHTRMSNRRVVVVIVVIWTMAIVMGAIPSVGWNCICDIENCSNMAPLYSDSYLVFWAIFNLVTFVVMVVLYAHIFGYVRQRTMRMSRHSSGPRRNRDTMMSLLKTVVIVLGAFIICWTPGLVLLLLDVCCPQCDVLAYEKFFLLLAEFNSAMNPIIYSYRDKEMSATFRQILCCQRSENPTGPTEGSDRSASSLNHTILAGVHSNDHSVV
assay.summary: Beta-Arrestin based assay (PathHunter)
quantity.name: EC50

Check out these entries, answers already filled in.
Cc1noc(-c2ccc(-c3ccc(Oc4cnccc4C(=O)O)cc3)cc2)c1NC(=O)O[C@H](C)c1ccccc1 < 50 nM
Cc1noc(-c2ccc(-c3ccc(Oc4ncncc4C(=O)O)cc3)cc2)c1NC(=O)O[C@H](C)c1ccccc1 < 50 nM
Cc1noc(-c2ccc(-c3ccc(OC(C)(C)C(=O)O)c(F)c3)cc2)c1NC(=O)O[C@H](C)c1ccccc1 < 50 nM
C[C@@H](OC(=O)Nc1c(-c2cc3sc(-c4cc(Cl)c(CC(=O)O)cc4F)cc3s2)nnn1C)c1ccccc1 > 500 nM
C[C@@H](OC(=O)Nc1c(-c2cc3sc(-c4ccc5c(CC(=O)O)c[nH]c5c4)cc3s2)nnn1C)c1ccccc1 > 500 nM

IN: // returns reported EC50 for input `Cc1cc(CC(=O)O)c(F)cc1-c1cc2sc(-c3nnn(C)c3NC(=O)O[C@H](C)c3ccccc3)cc2s1`
OUT: 50 to 500 nM

IN: // returns reported EC50 for input `C[C@@H](OC(=O)Nc1c(-c2ccc(C#CC(=O)Nc3ccccc3C(=O)O)cc2)cnn1C)c1ccccc1`
OUT: > 500 nM
